Could you please report measured Activity for the items listed next?
Assay Procedure: Cell cycle arrest in human ALL5 cells assessed as accumulation in G2 phase at 5 times of antiproliferative IC50 incubated for 48 hrs by propidium iodide based flow cytometry (reference value: 11.2 %)
Assay type: functional

QUERY: Query (compound): COc1cc2c(c(OC)c1OC)-c1ccc(OC)c(=O)cc1[C@@H](NC(C)=O)CC2 [COLCHICINE] ; field requested: Activity
RESULT: 22.3%

QUERY: Query (compound): COc1c(Br)c2c(c(OC)c1OC)-c1ccc(SC)c(=O)cc1[C@@H](NC(C)=O)CC2 ; field requested: Activity
RESULT: 16.6%

QUERY: Query (compound): COCC(=O)N[C@H]1CCc2c(Br)c(OC)c(OC)c(OC)c2-c2ccc(SC)c(=O)cc21 ; field requested: Activity
RESULT: 20.6%

QUERY: Query (compound): COc1cccc2c1C(=O)c1c(O)c3c(c(O)c1C2=O)C[C@@](O)(C(=O)CO)C[C@@H]3O[C@H]1C[C@H](N)[C@H](O)[C@H](C)O1 [DOXORUBICIN] ; field requested: Activity
RESULT: 5.52%

QUERY: Query (compound): COc1c(Br)c2c(c(OC)c1OC)-c1ccc(OC)c(=O)cc1[C@@H](NC(C)=O)CC2 ; field requested: Activity
RESULT: 18.6%

QUERY: Query (compound): COc1c(Br)c2c(c(OC)c1OC)-c1ccc(SC)c(=O)cc1[C@@H](NC(=O)c1ccccc1)CC2 ; field requested: Activity
RESULT: 25.4%

QUERY: Query (compound): COc1c(Br)c2c(c(OC)c1OC)-c1ccc(SC)c(=O)cc1[C@@H](NC(=O)C(C)C)CC2 ; field requested: Activity
RESULT: 20%

QUERY: Query (compound): CCC(=O)N[C@H]1CCc2c(Br)c(OC)c(OC)c(OC)c2-c2ccc(SC)c(=O)cc21 ; field requested: Activity
RESULT: 17.5%
